- assayed target: FAAH (Rattus norvegicus)
- Construct: Preparation of Rat Brain Membranes Preparations (FAAH Enzyme Solution); from tissue; host or cells: rat cerebrum (brain membrane preparation)
- Sequence (P97612 1-579): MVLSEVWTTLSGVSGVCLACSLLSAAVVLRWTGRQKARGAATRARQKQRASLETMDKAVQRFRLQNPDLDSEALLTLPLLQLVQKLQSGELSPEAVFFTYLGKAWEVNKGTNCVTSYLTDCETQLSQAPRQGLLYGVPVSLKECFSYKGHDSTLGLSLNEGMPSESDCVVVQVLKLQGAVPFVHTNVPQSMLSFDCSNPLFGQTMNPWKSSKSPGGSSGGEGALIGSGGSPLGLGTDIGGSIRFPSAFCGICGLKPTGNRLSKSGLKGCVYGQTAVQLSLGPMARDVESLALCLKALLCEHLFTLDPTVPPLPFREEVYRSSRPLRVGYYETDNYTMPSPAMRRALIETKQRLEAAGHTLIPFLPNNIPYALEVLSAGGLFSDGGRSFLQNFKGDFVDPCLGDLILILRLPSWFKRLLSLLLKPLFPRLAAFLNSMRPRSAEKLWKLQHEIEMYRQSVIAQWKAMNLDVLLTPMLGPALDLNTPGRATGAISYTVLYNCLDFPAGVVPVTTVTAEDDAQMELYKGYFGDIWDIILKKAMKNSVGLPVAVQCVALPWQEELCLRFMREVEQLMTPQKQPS
- protocol description: Determination of FAAH inhibitory activity in rat (rat brain membrane preparations, [3H]-anandamide hydrolysis)
- Type: biochemical
- condition set: rat brain membrane preparations; test substance 0.1 nM to 1 μM; read-out: FAAH Inhibition IC50
pIC50: −log10 of the molar value.
assay endpoint: pIC50

smiles string: COc1cccc(-c2ncc3c(n2)n(C)c(=O)n3C(=O)N2CCCCC2)c1
assayed target: FAAH (Rattus norvegicus)
pIC50: 8.22
--
smiles string: Cn1c(=O)n(C(=O)N2CCN(c3cccc(F)c3)CC2)c2cnc(-c3ccccc3)nc21
assayed target: FAAH (Rattus norvegicus)
pIC50: 8.22
--
smiles string: Cn1c(=O)n(C(=O)N2CCN(c3ccc(C(F)(F)F)cn3)CC2)c2cnc(-c3ccccc3)nc21
assayed target: FAAH (Rattus norvegicus)
pIC50: 8.05
--
smiles string: COCCC1CCN(C(=O)n2c(=O)n(C)c3nc(-c4cccc(OC)c4)ncc32)CC1
assayed target: FAAH (Rattus norvegicus)
pIC50: 8.15
